Assay summary: qHTS for differential inhibitors of proliferation of Plasmodium falciparum line 3D7 (AID 1876)
Measurement parameters: P. falciparum 3D7 proliferation inhibition; series mostly up to 28.7 µM
Results filed as inconclusive are left out. The source made the active and inactive calls. Calls follow the shape of the dose curve; as a rule, active = well fitted curve in the direction sought with a large enough effect; inconclusive = small, poorly fitted or top-dose-only effect, or another doubt; inactive = no such curve, though single readings can be large or run the other way.
Pick from true (1) = active, false (0) = inactive when you respond.

Could you check what this test reported for CN=C(NC#N)Nc1ccc(C2=NNC(=O)CC2C)cc1 (stereo not drawn) ?
false (0)

Could you kindly confirm the outcome this assay logged for CCC(NC(C)C)C(O)c1ccc(O)c(O)c1 (stereo not drawn) ?
true (1)

Short answer needed: outcome of this test for CN1C2CCC1CC(OC(=O)c1c[nH]c3ccccc13)C2 (stereo not drawn) ?
true (1)

Please share the test call associated with Nc1cc(Cl)c(NC2=NCCN2)c(Cl)c1 .
false (0)

So what was the verdict on C[C@@H]1C(=O)NC2=Nc3cccc(Cl)c3CN21 in this test?
false (0)

Returns: the outcome recorded for O=C1CCC(c2ccc(-n3ccnc3)cc2)=NN1 in this assay.
false (0)

Hi, do you know how COc1cc(-c2ccc(=O)[nH]n2)ccc1OC(F)F came out in this test?
false (0)

Hey, what did the test say about O=C(O)c1cc2cc(Cc3cccnc3)ccc2o1 ?
false (0)

# fetch the recorded call for CC(C)COC(=O)OCN1C(=O)CN(CCN2CC(=O)N(COC(=O)OCC(C)C)C(=O)C2)CC1=O here
false (0)

Which outcome was entered for the compound COc1cc(NS(C)(=O)=O)ccc1Nc1c2ccccc2nc2ccccc12 in this test?
true (1)

Test call for this compound, please: N[C@@H](Cc1cnc[nH]1)C(=O)O
false (0)

Which outcome was assigned to C1CCc2nnnn2CC1 in this test?
false (0)

Which outcome did this test record for the compound CC(C)NC[C@@H](O)COc1cccc2ccccc12 ?
true (1)
